Reference source: paper PMC4027202

- targetUnderTest: T1, Toscana virus nucleoprotein N (Toscana virus, UniProt P21701 1-253)
- T1 sequence: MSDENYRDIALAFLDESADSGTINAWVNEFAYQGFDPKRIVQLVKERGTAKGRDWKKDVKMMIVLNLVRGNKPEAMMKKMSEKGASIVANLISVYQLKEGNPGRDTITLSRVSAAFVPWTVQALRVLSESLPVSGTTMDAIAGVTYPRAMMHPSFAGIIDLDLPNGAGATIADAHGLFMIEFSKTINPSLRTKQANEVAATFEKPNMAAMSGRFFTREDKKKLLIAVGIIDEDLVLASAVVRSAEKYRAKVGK
- assayExplanation: ITC; n=0.49; ITC: 20 mM Tris pH 7.5, 150 mM NaCl, 8 C; 400 uM RNA titrated into 30 uM apo N
- experimentalParameters: protein: recombinant; tags: N-terminal His6; chain copies: 6; single strand
reportedEndpoint: Kd (nM)
Numbers only; they are read as nM.

Lab book: Kd of UAUGUUUCU (ssRNA) [oligo4 (G2A mutant of oligo1)] noted as 290

Lab book: Kd of UGUGUUUCU (ssRNA) [oligo1 (reverted 3' consensus 9-mer)] noted as 260
